Let's look at some molecules and their measured solubility kinetic at 10 s.
# procedure.summary: kinetic solubility by nephelometry
# Assay type: physicochemical
# condition.set: phosphate buffer, 25 °C, pH 7.4, aqueous buffer, kinetic from dmso stock, phosphate buffer pH 7.4, 1% DMSO, mean of two measurements, range in brackets
test.readout: solubility kinetic at 10 s

- molecule: "O=C1CCCc2cc(-c3ccnc(Nc4ccccc4)n3)ccc2N1 [Compound 2a]"
  reported.value: "~50 µM"
- molecule: "O=C1CCCc2cc(-c3ccnc(Nc4cccc(O)c4)n3)ccc2N1 [Compound 2m]"
  reported.value: "112 µM"
- molecule: "COc1ccc(Nc2nccc(-c3ccc4c(c3)CCCC(=O)N4)n2)cc1OCCCNS(=O)(=O)N1CCC1 [Compound 14g]"
  reported.value: "34.2 µM"
- molecule: "COc1ccc(Nc2nccc(-c3ccc4c(c3)CCCC(=O)N4)n2)cc1OCCCNS(=O)(=O)N1CCOCC1 [Compound 14f]"
  reported.value: "25 µM"
- molecule: "CN1CCN(CCCOc2cccc(Nc3nccc(-c4ccc5c(c4)CCCC(=O)N5)n3)c2)S1(=O)=O [Compound 14a]"
  reported.value: "25.3 µM"
